Data provenance: a melting point compilation (Tetko et al.; mined from patent text by program, amines drawn as free bases though some values may be those of a salt)

| Compound | melting point |
| --- | --- |
| C=CCNC(=O)c1c(O)c2ccc(Cl)cc2n(C)c1=N | 212 to 214 °C |
| CC(=NNc1ccc(C(F)(F)F)cc1)C(=O)NCc1ccc(Cl)cc1 | 124 to 125 °C |
| C#CCOC1(Nc2cccc(OCC3CO3)c2)N=CC(Br)=CN1 (centres undefined) | 173 °C |
| CCOCc1cc(OC)c(-c2ccc(C[C@H](NC(=O)c3c(F)cccc3F)C(=O)OCC)cc2)c(OC)c1 | 87 to 89 °C |
| CSCC(O)(Cn1cncn1)c1ccc(Cl)cc1Cl (centres undefined) | 117 to 119 °C |
| FC(F)(F)c1cc(-n2cc(/C=C/c3nnn[nH]3)c(-c3cccc(Cl)c3)n2)cc(C(F)(F)F)c1 | 228 to 229 °C |
| COc1cccc(Cc2ccc(N)c(C#N)c2)c1 | 81 to 82 °C |
| O=C(O)CNC(=Nc1ccc(C(=O)O)cc1)NCC1CCCCC1 | 164 °C |
| CC(=O)Nc1ccccc1OCCO | 89 to 91 °C |
| OC1CCSC(=S)N1Cc1ccco1 (centres undefined) | 42 to 43 °C |
| O=C1CC(c2cccc(-n3ccnc3)c2)=Nc2cc(N3C[C@@H](O)[C@@H](O)C3)c(-c3ccc(F)cc3)cc2N1 | 244 °C |
| O=C1C(Cl)=C(Nc2ccc(S(=O)(=O)Nc3ccccn3)cc2)C(=O)c2ccccc21 | 273 to 275 °C |
| CS(=O)(=O)OCC(C#N)(c1ccc(Cl)cc1)c1ccccc1Cl (centres undefined) | 124 to 127 °C |
| CN(C)c1ccc(NC(=O)N(Cc2ccco2)C[C@H]2CCCC[C@H]2CN(Cc2ccco2)C(=O)Nc2ccc(N(C)C)cc2)cc1 | 106 to 110 °C |
| CCC(=O)N1CCCSC1=C[N+](=O)[O-] | 84 to 86 °C |
| CC(C)(CO)C(O)C(Oc1ccc(Cl)cc1)n1cncn1 (centres undefined) | 110 to 112 °C |
| COc1ccc(-c2cc(C#N)nnc2-c2ccc(OC)cc2)cc1 | 113 to 115 °C |
| COC(=O)c1ccc(OCCCCCCCc2cc(C)no2)cc1 | 60 °C |
| O=C(Cn1cc(Cl)cn1)c1ccc(Br)s1 | 127 °C |
| CC1(C)COP(N(C2CC(C)(C)NC(C)(C)C2)C2CC(C)(C)NC(C)(C)C2)OC1 | 156 °C |
| Cc1nc2cc(NC(=O)c3cc4cc(C(F)(F)F)cnc4n3Cc3cccc(F)c3)ccc2n1C | 263 to 265 °C |
| Fc1cc2nc3c(cnn3-c3ccccn3)c(Cl)c2cc1F | 167 to 168 °C |
| O=C(O)CNC(=O)COc1c(F)cc(CSCCNS(=O)(=O)c2ccc(Cl)cc2)cc1F | 140 °C |
| CC1CNc2c(ccc(NC3=NCCN3)c2Br)N1 (single isomer, unassigned; (+)) | 203 to 205 °C |
| CCOC(=O)c1ccc(OC(=O)c2ccc(C(=O)Oc3ccc(C(=O)OCC)cc3)cc2)cc1 | 187 to 189 °C |
| COC(=O)c1cnn(-c2ccc(Cl)cc2Cl)c1N | 143 to 145 °C |
| COc1cc(NC(=O)c2ccccc2Cl)ccc1C(=O)N1CCCC(OCCS(=O)(=O)c2ncc[nH]2)c2cc(Cl)ccc21 (centres undefined) | 247 to 248 °C |
| CNCC(O)C1=CNC2C=CC=CC12 (centres undefined) | 117 to 120 °C |
| O=C1CCC(c2ccccc2)(c2ccccc2)C2CN(C(Cc3ccccc3)=NCc3ccccc3F)CC12 (centres undefined) | 160 °C |
| CS(=O)(=O)Nc1cccc(Nc2nc(OC3CCCC3)c3cc[nH]c3n2)c1 | 203 to 205 °C |
| COc1cc(Nc2c(C#N)cnc3cc(-c4ccc(CN5CCOCC5)cn4)ccc23)c(Cl)cc1Cl | 220 to 222 °C |
| CC(C)(OCc1nn(Cc2ccccc2)c2ccccc12)C(=O)NCC(=O)O | 157 to 158 °C |
| COc1cc(C)ccc1S(=O)(=O)NC(=O)C(c1cc(OC)c2c(c1)OCO2)c1cn(C)c2cc(C=O)ccc12 (centres undefined) | 233 °C |
| Cc1oc(-c2ccc(F)cc2)nc1COc1cccc(CN(O)C(N)=O)c1 | 156 to 157 °C |
| Cn1c(CC(=O)O)ccc1C(=O)c1ccc(Cl)cc1Cl | 165 to 166 °C |
| Cc1cc(C)cc(C(=O)N2CCC(N3CCC(NC(=O)c4ccccc4N)CC3)CC2Cc2ccccc2)c1 (centres undefined) | 121 °C |
| O=C(O)c1cccc(-c2ncco2)c1 | 187 to 188 °C |
| O=C(c1ccccc1)C1CCN(Sc2ccncc2)CC1 | 123 to 124 °C |
| C(#Cc1cc2ccccc2s1)c1cccs1 | 114 to 116 °C |
